experimental_target: SsOGT-H^5 (Saccharolobus solfataricus, UniProt Q97VW7, G105K/K110E/M106T/R102A/S100A/S132E)
Construct: His6-tag; made in house; host or cells: E. coli ABLE C
Sequence (Q97VW7 whole entry S100A/R102A/G105K/M106T/K110E/S132E): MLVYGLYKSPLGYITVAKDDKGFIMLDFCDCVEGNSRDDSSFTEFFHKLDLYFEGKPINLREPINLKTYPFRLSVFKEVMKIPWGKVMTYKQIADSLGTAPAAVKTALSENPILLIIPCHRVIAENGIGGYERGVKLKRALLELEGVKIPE
assay_summary: AGTs' substrate assay by competitive inhibition method with SVG (gel-imaging)
Format: biochemical
cond: SVG 5 µM, enzyme 5 µM, 30 min at 50 °C; read-out: IC50
result_type: IC50

- record_smiles: "Nc1nc(OCc2ccccc2)c2nc[nH]c2n1"
  IC50: "10.1 µM"

Switching to the query record.
Task: Which IC50 value belongs to [N-]=[N+]=NCc1ccc(COc2nc(N)nc3nc[nH]c23)cc1 ?
Result: 23.5 µM
